# System: recombinant FAD-GDH (rAT-FAD-GDH) derived from Aspergillus terreus
# Test Name: Thermal stabilization effect of stabilizing agents on rAT-FAD-GDH in solution (Example 9)
# Type: physicochemical
# Test Conditions: Table 10; buffer 50 mM K-PB; stabilizer at each final concentration described in Table 1
Each item that follows carries a reported GLD activity value (U/ml) 50° C., 15 min.

Compound | GLD activity value (U/ml) 50° C., 15 min
CNCC(=O)O | 0.081
N[C@@H](CC(=O)[O-])C(=O)[O-].[Na+].[Na+] [Sodium L-aspartate] | 0.102
O=C(O)[C@H]1CCCN1 | 0.079
NCC(=O)O | 0.094
N[C@H](CCC(=O)O)C(=O)O | 0.149
O=C[C@H](O)[C@@H](O)[C@H](O)[C@H](O)C(=O)[O-].[Na+] [D-sodium glucuronate] | 0.279

---

Each item that follows carries a reported Residual activity ratio (%) after treatment at 50° C., 15 min.
# Test system: recombinant FAD-GDH (rAO-FAD-GDH) derived from Aspergillus oryzae
# Test Name: Thermal stabilization effect of stabilizing agents on rAO-FAD-GDH in solution (Examples 3-6)
# Format: physicochemical
# Test Conditions: stabilizer final concentration 1%; rAO-FAD-GDH about 2 U/mL, 50 mM potassium phosphate buffer pH 5.5, 0.1% Triton X-100; 4° C. sample = 100
Observation Type: Residual activity ratio (%) after treatment at 50° C., 15 min

Compound | Result Number
O=C1O[C@H](CO)[C@@H](O)[C@H](O)[C@H]1O | 0.0
N[C@@H](CO)C(=O)O | 27.0
O=C([O-])[C@H](O)[C@@H](O)[C@H](O)[C@H](O)CO.[Na+] [sodium gluconate] | 33.5
O=C[C@@H](O)[C@H](O)[C@H](O)CO [D-(−)-arabinose] | 23.0
OC[C@H]1O[C@@](CO)(O[C@H]2O[C@H](CO)[C@@H](O)[C@H](O)[C@H]2O)[C@@H](O)[C@@H]1O | 44.1
N[C@@H](CC(=O)O)C(=O)O | 12.2
CO[C@H]1O[C@H](CO)[C@@H](O)[C@H](O)[C@H]1O [Methyl-a-D-glucoside] | 53.6

---

# Test system: recombinant FAD-GDH (rAT-FAD-GDH) derived from Aspergillus terreus
# Test Name: Thermal stabilization effect of stabilizing agents on rAT-FAD-GDH in solution (Example 9)
# Format: physicochemical
# Test Conditions: Table 10; buffer 50 mM K-PB; stabilizer at each final concentration described in Table 1
Threshold check on GLD activity value (U/ml) 50° C., 15 min: strictly below 0.05 U/ml is rule met; on or above 0.05 U/ml is rule not met.

Compound | Class Name
O=C[C@H](O)[C@@H](O)[C@H](O)CO [D-(+)-xylose] | rule not met
OC[C@H]1O[C@@H]2O[C@H]3[C@H](O)[C@@H](O)[C@@H](O[C@H]4[C@H](O)[C@@H](O)[C@@H](O[C@H]5[C@H](O)[C@@H](O)[C@@H](O[C@H]6[C@H](O)[C@@H](O)[C@@H](O[C@H]7[C@H](O)[C@@H](O)[C@@H](O[C@H]1[C@H](O)[C@H]2O)O[C@@H]7CO)O[C@@H]6CO)O[C@@H]5CO)O[C@@H]4CO)O[C@@H]3CO | rule met
N[C@@H](CO)C(=O)O | rule not met
NC(=O)C[C@H](N)C(=O)O | rule met
N[C@H](Cc1ccccc1)C(=O)O | rule not met
Cl.NCCCC[C@H](N)C(=O)O [L-lysine hydrochloride] | rule not met
O=C(CO)[C@@H](O)[C@H](O)[C@H](O)CO [D-(−)-fructose] | rule not met
O=C[C@H](O)[C@@H](O)[C@@H](O)[C@H](O)CO | rule not met
C[C@H](N)C(=O)O | rule not met
CO[C@H]1O[C@H](CO)[C@@H](O)[C@H](O)[C@H]1O [Methyl-a-D-glucoside] | rule not met
N=C(N)NCCC[C@H](N)C(=O)O | rule met
O=CC[C@@H](O)[C@H](O)[C@H](O)CO | rule not met
NC(=O)CC[C@H](N)C(=O)O | rule met
O=C1O[C@H](CO)[C@@H](O)[C@H](O)[C@H]1O | rule met
N[C@@H](CC(=O)O)C(=O)O | rule met
NCCS(=O)(=O)O | rule not met
N[C@@H](Cc1c[nH]c2ccccc12)C(=O)O | rule met
O=C([O-])[C@H](O)[C@@H](O)[C@H](O)[C@H](O)CO.[Na+] [sodium gluconate] | rule not met
CC(C)C[C@H](N)C(=O)O | rule met

---

# Test system: recombinant FAD-GDH (rAO-FAD-GDH) derived from Aspergillus oryzae
# Test Name: Thermal stabilization effect of stabilizing agents on rAO-FAD-GDH in solution (Examples 3-6)
# Type: physicochemical
# Test Conditions: stabilizer final concentration 1%; rAO-FAD-GDH about 2 U/mL, 50 mM potassium phosphate buffer pH 5.5, 0.1% Triton X-100; 4° C. sample = 100
# Protocol: Enhancement of the thermal stability referred to herein means increasing of a residual ratio (%) of the GDH enzyme kept after giving the treatment with heat at a certain temperature for a certain time period to the composition comprising the GDH enzyme. […] In the present invention, the activity of FAD-dependent GDH is measured as follows. […] The reaction reagent (3 mL) is preliminarily heated at 37° C. for 5 minutes. […] The GDH activity is calculated from these values according to the following formula. […]
Each item that follows carries a reported Residual activity ratio (%) after treatment at 50° C., 15 min.
Observation Type: Residual activity ratio (%) after treatment at 50° C., 15 min

Compound | Target | Result Number
CNCC(=O)O [Sarcosine] | recombinant FAD-GDH (rAO-FAD-GDH) derived from Aspergillus oryzae | 25.2
O=C[C@@H](O)[C@@H](O)[C@H](O)[C@H](O)CO [D-(+)-mannose] | recombinant FAD-GDH (rAO-FAD-GDH) derived from Aspergillus oryzae | 65.3
O=C(O)[C@H]1CCCN1 [D-proline] | recombinant FAD-GDH (rAO-FAD-GDH) derived from Aspergillus oryzae | 24.8
OC[C@H]1O[C@H](OCC2O[C@@H](O)[C@H](O)[C@@H](O)[C@@H]2O)[C@H](O)[C@@H](O)[C@H]1O (stereo partly drawn) [a-D-(+)-melibiose] | recombinant FAD-GDH (rAO-FAD-GDH) derived from Aspergillus oryzae | 59.0
NCCS(=O)(=O)O [Taurine] | recombinant FAD-GDH (rAO-FAD-GDH) derived from Aspergillus oryzae | 23.8
O=C[C@H](O)[C@@H](O)[C@@H](O)[C@H](O)CO [Galactose] | recombinant FAD-GDH (rAO-FAD-GDH) derived from Aspergillus oryzae | 60.6
O.O.OC[C@H]1O[C@H](O[C@H]2O[C@H](CO)[C@@H](O)[C@H](O)[C@H]2O)[C@H](O)[C@@H](O)[C@@H]1O [D-(+)-trehalosedihydrate] | recombinant FAD-GDH (rAO-FAD-GDH) derived from Aspergillus oryzae | 64.7
N[C@@H](CC(=O)[O-])C(=O)[O-].[Na+].[Na+] [Sodium L-aspartate] | recombinant FAD-GDH (rAO-FAD-GDH) derived from Aspergillus oryzae | 23.0
OC[C@H]1O[C@@](CO)(O[C@H]2O[C@H](CO)[C@@H](O)[C@H](O)[C@H]2O)[C@@H](O[C@H]2O[C@H](CO)[C@@H](O)[C@H](O)[C@H]2O)[C@@H]1O [D-(+)-melezitose] | recombinant FAD-GDH (rAO-FAD-GDH) derived from Aspergillus oryzae | 44.7
O=C[C@H](O)[C@@H](O)[C@H](O)[C@H](O)C(=O)[O-].[Na+] [D-sodium glucuronate] | recombinant FAD-GDH (rAO-FAD-GDH) derived from Aspergillus oryzae | 56.2
Cl.NCCCC[C@H](N)C(=O)O [L-lysine hydrochloride] | recombinant FAD-GDH (rAO-FAD-GDH) derived from Aspergillus oryzae | 23.4
O=CC[C@@H](O)[C@H](O)[C@H](O)CO [2-deoxy-D-glucose] | recombinant FAD-GDH (rAO-FAD-GDH) derived from Aspergillus oryzae | 69.6
O=C(O)C1OC(O)C(O)C(O)C1O [D-a-galacturonic acid] | recombinant FAD-GDH (rAO-FAD-GDH) derived from Aspergillus oryzae | 0.0
OC[C@H]1O[C@@H]2O[C@H]3[C@H](O)[C@@H](O)[C@@H](O[C@H]4[C@H](O)[C@@H](O)[C@@H](O[C@H]5[C@H](O)[C@@H](O)[C@@H](O[C@H]6[C@H](O)[C@@H](O)[C@@H](O[C@H]7[C@H](O)[C@@H](O)[C@@H](O[C@H]1[C@H](O)[C@H]2O)O[C@@H]7CO)O[C@@H]6CO)O[C@@H]5CO)O[C@@H]4CO)O[C@@H]3CO [a-cyclodextrin] | recombinant FAD-GDH (rAO-FAD-GDH) derived from Aspergillus oryzae | 44.1
O=C(CO)[C@@H](O)[C@H](O)[C@H](O)CO [D-(−)-fructose] | recombinant FAD-GDH (rAO-FAD-GDH) derived from Aspergillus oryzae | 25.9
